System: A498
assay.summary: Growth inhibition of human A498 cells by sulforhodamine B assay
Assay type: functional
measurement.setup: read-out: pGI50 (converted)
recorded.endpoint: GI50 (nM)
A number alone suffices; assume nM.

Supply measured GI50 of `C/C=C(/C)C(=O)O[C@@H]1CC(C)(C)C[C@H]2C3=CC[C@@H]4[C@@]5(C)CC[C@H](O)C(C)(C)[C@@H]5CC[C@@]4(C)[C@]3(C)CC[C@@]12C(=O)O` in your reply. 1550

Retrieve GI50 measured for `CC(C)=CC(=O)O[C@@H]1CC(C)(C)C[C@H]2C3=CC[C@@H]4[C@@]5(C)CCC(=O)C(C)(C)[C@@H]5CC[C@@]4(C)[C@]3(C)CC[C@@]12C(=O)O` and print it. 1580

Supply reported GI50 belonging to this molecule: `C/C=C(/C)C(=O)O[C@@H]1CC(C)(C)C[C@H]2C3=CC[C@@H]4[C@@]5(C)CCC(=O)C(C)(C)[C@@H]5CC[C@@]4(C)[C@]3(C)CC[C@@]12C(=O)O` 2040

Tell us which GI50 value is on record for `CC(C)=CC(=O)O[C@@H]1CC(C)(C)C[C@H]2C3=CC[C@@H]4[C@@]5(C)CC[C@H](O)C(C)(C)[C@@H]5CC[C@@]4(C)[C@]3(C)CC[C@@]12C(=O)O` 2820

Specify GI50 for `CC1(C)C[C@@H](O)[C@]2(C(=O)O)CC[C@]3(C)C(=CC[C@@H]4[C@@]5(C)C/C(=C\C=C\c6ccccc6)C(=O)C(C)(C)[C@@H]5CC[C@]43C)[C@@H]2C1` and stop. 2570

Origin of measurements: ChEMBL document CHEMBL2413072
